# Test system: THRa homodimer (NR concentration 90 nM)
# Protocol Summary: PBM binding z-score (relative to random genomic background probes); higher = stronger binding; sequences stand for … in GC…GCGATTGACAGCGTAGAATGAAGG
Returns Yes if the recorded PBM binding z-score is greater than or equal to 0.9, and No otherwise.

Check out these entries, answers already filled in.
| Seq String | Target | Category |
| --- | --- | --- |
| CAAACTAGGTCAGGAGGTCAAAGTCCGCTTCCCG | THRa homodimer (NR concentration 90 nM) | Yes |
| CGTCCAAGGTCAAAGGTCAGTCAAGAGATGACGG | THRa homodimer (NR concentration 90 nM) | Yes |
| ATCTCTAGGTAACATGTTCAGTGAAAGAGAGGAC | THRa homodimer (NR concentration 90 nM) | No |
| TCATATAGGTAAACGGGTGAAAGTCCGTAAGTTA | THRa homodimer (NR concentration 90 nM) | No |
| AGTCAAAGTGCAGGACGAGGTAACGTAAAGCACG | THRa homodimer (NR concentration 90 nM) | No |

Challenge: Check if PBM binding z-score >= 0.9 (inclusive). Item: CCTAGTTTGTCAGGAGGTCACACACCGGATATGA
Response given: Yes

Challenge: Please do the same for CCGACTGGGGCAGAAAGGTTACCCTACCATCCGG as well.
Response given: No

Challenge: Now consider TCTTGTAGATCAACAGGAGGTCAAGAAAGATCGA .
Response given: No

Challenge: What about this sequence? AGCGAAAGGTCGACGAGGTGAGTATACACCGTTT
Response given: No

Challenge: Let us now turn to CGTCCAAGGTCAAAGGCCAGTGAAGAGATGACGG
Response given: Yes

Challenge: Now the same for GCTGCTAGGTCAGGTTGGTAAGCTAACGGGTACG
Response given: No
